Target: Pantothenate synthetase (Mycobacterium tuberculosis (strain ATCC 25618 / H37Rv))
Assay: Coupled enzyme confirmation of inhibitors against recombinant Mtb PanC (AID 375);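 also: 0% = full reaction with vehicle and 100% = no enzyme background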
Conditions: coupled enzyme assay; at 10 µM, hits give high values
So I've got a bunch of molecules here, and I need their inhibition values.
Quick note: give the figure in %, leave out the unit.

# get_value(readout='inhibition', item= CCOc1ccc(/C=N/n2cnnc2)cc1 )
3

# get_value(readout='inhibition', item= Cc1cc(C(=O)Nc2cccnc2)no1 )
0

# get_value(readout='inhibition', item= Cc1csc2nc(CSc3ccc(Cl)cc3)cn12 )
0

# get_value(readout='inhibition', item= O=c1cc(CSc2nnnn2-c2ccccc2)nc2scc(-c3ccccc3)n12 )
3

# get_value(readout='inhibition', item= O=C(NC1CCCC1)C(c1cccs1)N(Cc1ccco1)C(=O)Cn1nnc(-c2cccs2)n1 (configuration not stated) )
0

# get_value(readout='inhibition', item= CCOC(=O)C1CCN(C(=O)CCCCn2c(=O)[nH]c3ccccc3c2=O)CC1 )
2

# get_value(readout='inhibition', item= Cc1cc(NC(=O)CSc2nnc(COc3cccc(C)c3C)n2Cc2ccco2)no1 )
0

# get_value(readout='inhibition', item= O=C(Nc1ccc(N2CCOCC2)c(Cl)c1)c1ccc(Br)o1 )
0

# get_value(readout='inhibition', item= c1ccc(-c2cn3c4c(sc3n2)CCCC4)cc1 )
3

# get_value(readout='inhibition', item= CCc1ccc(NS(=O)(=O)c2cccs2)cc1 )
0

# get_value(readout='inhibition', item= COC(=O)c1cc(=O)nc2sc(-c3cccs3)nn12 )
8

# get_value(readout='inhibition', item= Nc1nonc1NC(=O)CSc1nc2ccccc2s1 )
0

----------
Assay: S. cerevisiae growth inhibition in permissive medium (OD615), pilot counter-assay for S. cerevisiae lifespan shortening project, permissive growth control (AID 705)
Conditions: OD615, 24 h, at 10 µM, hits give high values
quantity_name: growth inhibition (%)
Quick note: give the figure in %, leave out the unit.

# get_value(readout='growth inhibition', item= Cc1cc(OCC(=O)OC(C)(C)C)c2c3c(c(=O)oc2c1)CCC3 )
-8.29

# get_value(readout='growth inhibition', item= OC12CCCCC1C(c1ccccc1)NCC2 (stereo not drawn) )
-3.8

# get_value(readout='growth inhibition', item= CCOC(=O)C1SC2(C(F)(F)C(F)F)CC1(O)c1c(c(OC)c3occc3c1OC)O2 (stereo not drawn) )
-4.93

----------
Target: Pantothenate synthetase (Mycobacterium tuberculosis (strain ATCC 25618 / H37Rv))
Assay: Coupled enzyme confirmation of inhibitors against recombinant Mtb PanC (AID 375);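 also: 0% = full reaction with vehicle and 100% = no enzyme background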
Details: coupled enzyme assay; at 10 µM, hits give high values
Calls of active or inactive are those of the source. No rule for the calls is given here.
So I've got a bunch of compounds here, and I need their inhibition values.

# get_value(readout='inhibition', item= CC1(C)NC(=O)N(CNc2cc(Cl)ccc2Cl)C1=O )
0% (inactive)

# get_value(readout='inhibition', item= C=Cn1nc(C)c2ccccc2c1=O )
0% (inactive)

# get_value(readout='inhibition', item= CCCCCC(=O)O[C@]1(C(C)=O)CC[C@H]2[C@@H]3CCC4=CC(=O)CC[C@]4(C)[C@H]3CC[C@@]21C )
0% (inactive)

# get_value(readout='inhibition', item= c1cn(CC2(Cn3ccnc3)COC2)cn1 )
1% (inactive)

# get_value(readout='inhibition', item= COc1ccc(CC(NC(C)=O)C(=O)NC2CCN(C(=O)Nc3ccc(C#N)cc3)CC2)cc1OC (stereo not drawn) )
10% (inactive)

# get_value(readout='inhibition', item= FC(F)(F)c1cccc(N2CCN(Cc3cccnc3)CC2)c1 )
4% (inactive)

# get_value(readout='inhibition', item= Cc1ccc(C(c2nnnn2CCC(C)C)N2CCN(C)CC2)cc1 (stereo not drawn) )
2% (inactive)

# get_value(readout='inhibition', item= COc1ccc(S(=O)(=O)NCc2ccc3c(c2)OCO3)cc1C(=O)O )
5% (inactive)

# get_value(readout='inhibition', item= O=C(CSc1nnc(-c2ccncc2)o1)Oc1ccccc1 )
0% (inactive)

# get_value(readout='inhibition', item= COCCN(CC(=O)NC1CCCCC1)C(=O)CSc1nc2ccccc2o1 )
0% (inactive)

# get_value(readout='inhibition', item= Cc1ccc2c(c1)NC(=O)C(CC(=O)NC1CCCCC1C)O2 (stereo not drawn) )
11% (inactive)

# get_value(readout='inhibition', item= C[C@@]1(CO)[C@H](O)CC[C@@]2(C)[C@H]1CC[C@H]1C[C@@H]3C[C@@]12CC[C@]3(O)CO )
0% (inactive)

# get_value(readout='inhibition', item= CCCN(CCC)C(=O)CC(c1ccc(F)cc1)c1ccco1 (stereo not drawn) )
1% (inactive)

# get_value(readout='inhibition', item= CCOc1ccccc1OCCn1nnc2ccccc21 )
4% (inactive)

# get_value(readout='inhibition', item= O=C(NCCC1=CCCCC1)C1CCN(S(=O)(=O)c2cnc[nH]2)CC1 )
2% (inactive)

# get_value(readout='inhibition', item= Cc1nc(NS(=O)(=O)c2ccccc2)sc1NC(=O)OC(C)C )
0% (inactive)

# get_value(readout='inhibition', item= COc1cc(C2c3c(oc4c(C)cc(C)cc4c3=O)C(=O)N2Cc2cccnc2)ccc1O (stereo not drawn) )
0% (inactive)

# get_value(readout='inhibition', item= CCOC(=O)CN1C(=O)C2(OCCCO2)c2ccccc21 )
1% (inactive)

# get_value(readout='inhibition', item= CCOC(=O)CSc1ncnc2c1cnn2-c1ccc(C)cc1 )
15% (inactive)

# get_value(readout='inhibition', item= COC(=O)c1ccccc1-n1c(C)nc2ccccc2c1=O )
4% (inactive)

# get_value(readout='inhibition', item= CCc1ccc2nc(NC(=O)CSCc3c(C)noc3C)sc2c1 )
6% (inactive)

# get_value(readout='inhibition', item= CCN(CC)C(=O)c1sc2nc(-c3cccs3)cc(-c3cccs3)c2c1N )
0% (inactive)

# get_value(readout='inhibition', item= O=c1cc(-c2ccc(Cl)cc2)[nH][nH]1 )
1% (inactive)
